- Test system: C3H/10T1/2 cells
- Procedure Text: Anti-apoptotic activity assay: serum deprivation of C3H/10T1/2 cells
- Type: cell-based
- Reported Conditions: serum-deprived C3H/10T1/2 cells, 24 hours of treatment
Readout Label: Concentration for Max Effect (µM)
Just the number please, in µM, no unit attached.

Consider the reported Concentration for Max Effect for these compounds:
CCCCCCCC/C=C\CCCCCCCC(=O)NC(C)COP(=O)(O)O (stereo not drawn) [Compound 61, 2-Amino-2-N-oleoyl-propyl phosphate] :: 30
CCCCCCCC/C=C\CCCCCCCCOCCCOP(=O)(O)O [Compound 16, 3-O-Oleyloxypropyl-1-phosphate] :: 10
CCCCCCCC/C=C\CCCCCCCC(=O)OCC(COP(O)(O)=S)OC (racemic) [Compound 48] :: 1
CCCCCCCC/C=C\CCCCCCCCCCCCOP(=O)(O)O [Compound 71, Erucyl phosphate] :: 100
CCCCCCCC/C=C\CCCCCCCC(=O)OCC(O)COP(=O)(O)O (stereo not drawn) [18:1 LPA, oleoyl-lysophosphatidic acid, reference compound] :: 10
CCCCCCCCCCCCCC(=O)OC[C@@H](O)COP(=O)(O)O [14:0 LPA, reference compound] :: 30

Form field: reported Concentration for Max Effect of CCCCCCCC/C=C\CCCCCCCC(=O)OCCCOP(O)(O)=S [Compound 68, 1-(3-propyloleoate)thiophosphate]
1

Which measured Concentration for Max Effect value corresponds to CCCCCCCC/C=C\CCCCCCCCOCC(COP(O)(O)=S)OC (racemic) [Compound 66] ?
1

Query (compound): CCCCCCCCCCOCCCOP(=O)(O)O [Compound 19, 3-Decyloxypropyl-1-phosphate] ; field requested: Concentration for Max Effect
30

---

- Tested on: C3H/10T1/2 cells
- Procedure Text: Anti-apoptotic activity assay: serum deprivation of C3H/10T1/2 cells
- Assay type: cell-based
- Reported Conditions: serum-deprived C3H/10T1/2 cells, 24 hours of treatment
- Description: In order to determine the […] of the claimed invention, the following method of analysis was used. The cell assay is described in detail in U.S. Pat. Nos. 5,637,486, 5,620,888, and 5,681,703, and Tomei et al. (1993) Proc Natl. Aci. 90:853-857. […] 1. All non-adherent or loosely adherent cells were removed from the culture dish and counted by appropriate techniques, typically counting by electronic particle counting instrument. […]
Readout Label: Concentration for Max Effect (µM)
Response body: numeric value in µM, unit text excluded.

Some solved cases for reference:
CCCCCCCC/C=C\CCCCCCCC(=O)OCC(Br)COP(=O)(O)O (racemic) [Compound 37] :: 30
CCCCCCCC/C=C\CCCCCCCC(=O)OCC(COP(=O)(O)O)OC (racemic) [Compound 46] :: 30
CCCCCCCC/C=C\CCCCCCCCOCC(COP(O)(=S)OCC(COCCCCCCCC/C=C\CCCCCCCC)OC)OC (racemic) [Compound 80] :: 3
CCCCCCCC/C=C\CCCCCCCC(=O)OCCCOP(=O)(O)O [Compound 30, 1-(3-propyl oleoate)phosphate] :: 30
CCCCCCCC/C=C\CCCCCCCCOCC(COP(=O)(OC)OC)OC (racemic) [Compound 23] :: 30

# input for lookup
Query (molecule): CCCCCCCCCCCCCCCC(=O)OCC(O)COP(=O)(O)O (stereo not drawn) [16:0 LPA, Palmitoyl-LPA, reference compound] ; field requested: Concentration for Max Effect
10
